Hello, the source for this data is patent US12624112, in case you need it.

- assay.system: T1, ST2 on the effector cells (KU812, KU812/NF-κB-1#, HUVEC, HMC-1) (human, UniProt Q01638 19-556)
- T1 sequence (looked up): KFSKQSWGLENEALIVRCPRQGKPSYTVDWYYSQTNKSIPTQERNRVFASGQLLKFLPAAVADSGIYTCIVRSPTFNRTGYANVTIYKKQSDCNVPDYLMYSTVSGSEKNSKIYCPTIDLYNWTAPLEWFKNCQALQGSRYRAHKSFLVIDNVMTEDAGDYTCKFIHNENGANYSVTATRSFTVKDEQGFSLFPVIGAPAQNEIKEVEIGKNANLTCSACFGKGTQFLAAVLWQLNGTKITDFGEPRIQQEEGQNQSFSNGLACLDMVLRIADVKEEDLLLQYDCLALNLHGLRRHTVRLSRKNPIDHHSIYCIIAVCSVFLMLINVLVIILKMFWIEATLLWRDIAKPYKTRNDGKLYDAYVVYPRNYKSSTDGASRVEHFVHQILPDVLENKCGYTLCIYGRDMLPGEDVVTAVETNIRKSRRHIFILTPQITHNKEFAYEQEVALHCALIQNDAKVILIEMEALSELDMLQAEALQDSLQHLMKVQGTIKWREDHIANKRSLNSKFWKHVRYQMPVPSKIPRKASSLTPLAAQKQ
- assay.comment: cell-based or functional assay
// values below are reported Maximum inhibition rate, KU812-NF-κB reporter gene
Field format: number, assumed %, no unit text.

Here's what some known entries look like.
- binder: "5888-116-H0L1 (antibody, human IgG4 S228P, kappa, V domains shown, Humanized antibody) VH: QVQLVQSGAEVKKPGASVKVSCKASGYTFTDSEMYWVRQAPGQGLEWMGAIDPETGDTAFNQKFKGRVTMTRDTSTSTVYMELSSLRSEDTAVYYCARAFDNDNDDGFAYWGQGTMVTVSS VL: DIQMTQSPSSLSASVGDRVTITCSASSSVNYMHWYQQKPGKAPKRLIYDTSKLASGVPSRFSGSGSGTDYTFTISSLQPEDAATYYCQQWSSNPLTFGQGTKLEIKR"
  quantity.unit: "%"
  quantitative.result: 95.7
- binder: "5886-156-H1L0 (antibody, human IgG4 S228P, kappa, V domains shown, Humanized antibody expressed in CHO-K1, purified by protein A) VH: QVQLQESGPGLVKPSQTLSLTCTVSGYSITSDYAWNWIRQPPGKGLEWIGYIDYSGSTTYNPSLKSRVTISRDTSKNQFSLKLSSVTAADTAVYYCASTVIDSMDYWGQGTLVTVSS VL: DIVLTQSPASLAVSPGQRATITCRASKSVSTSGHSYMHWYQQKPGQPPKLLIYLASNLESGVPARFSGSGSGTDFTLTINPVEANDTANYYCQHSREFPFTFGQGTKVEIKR"
  quantity.unit: "%"
  quantitative.result: 92.5

The reported Maximum inhibition rate, KU812-NF-κB reporter gene of the binder 5888-153-H0L1 (antibody, human IgG4 S228P, kappa, V domains shown, Humanized antibody) VH: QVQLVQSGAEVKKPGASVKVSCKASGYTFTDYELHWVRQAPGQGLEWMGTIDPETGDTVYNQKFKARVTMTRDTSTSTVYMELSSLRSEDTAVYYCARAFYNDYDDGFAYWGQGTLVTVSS VL: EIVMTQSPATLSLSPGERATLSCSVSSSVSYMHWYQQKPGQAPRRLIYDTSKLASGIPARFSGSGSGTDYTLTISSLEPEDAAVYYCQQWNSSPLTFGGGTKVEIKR was 88.2

// Maximum inhibition rate, KU812-NF-κB reporter gene lookup, binder = 5888-153-H3L1 (antibody, human IgG4 S228P, kappa, V domains shown, Humanized antibody) VH: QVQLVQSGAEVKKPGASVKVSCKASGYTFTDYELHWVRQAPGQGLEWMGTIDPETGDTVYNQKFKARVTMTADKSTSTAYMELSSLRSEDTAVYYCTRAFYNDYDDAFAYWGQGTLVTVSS VL: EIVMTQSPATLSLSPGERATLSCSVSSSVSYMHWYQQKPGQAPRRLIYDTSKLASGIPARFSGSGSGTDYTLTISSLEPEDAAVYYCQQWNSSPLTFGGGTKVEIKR , result: 86.1

// field: Maximum inhibition rate, KU812-NF-κB reporter gene; key: 5887-41-H1L0 (antibody, human IgG4 S228P, kappa, V domains shown, Humanized antibody) VH: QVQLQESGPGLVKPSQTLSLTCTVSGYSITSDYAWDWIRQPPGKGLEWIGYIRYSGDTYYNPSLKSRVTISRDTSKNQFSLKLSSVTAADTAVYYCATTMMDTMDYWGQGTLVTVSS VL: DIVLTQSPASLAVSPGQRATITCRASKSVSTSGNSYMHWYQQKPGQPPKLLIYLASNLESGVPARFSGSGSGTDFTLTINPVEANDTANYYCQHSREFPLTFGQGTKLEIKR ; value = 89.2

Maximum inhibition rate, KU812-NF-κB reporter gene for 5888-153-H1L1 (antibody, human IgG4 S228P, kappa, V domains shown) VH: QVQLVQSGAEVKKPGASVKVSCKASGYTFTDYELHWVRQAPGQGLEWMGTIDPETGDTVYNQKFKARVTMTADKSTSTAYMELSSLRSEDTAVYYCTRAFYNDYDDGFAYWGQGTLVTVSS VL: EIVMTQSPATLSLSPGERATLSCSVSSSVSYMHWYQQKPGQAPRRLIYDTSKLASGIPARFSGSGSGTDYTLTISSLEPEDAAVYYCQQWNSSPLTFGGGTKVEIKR is 91.4
